Hello, the source for this data is the supplement of paper PMC10567573, in case you need it.

B1: ANKRD40 (parent)
chain: YQELLRVCCCELGVNPDQVEKIRK

variants of: B1; experiment: protein stability index of a GFP-peptide fusion (GPS, HEK-293T) (PSI 1-6); higher = more stable; conditions: c terminus: a fixed tail appended;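 also: lentivirally expressed fusions sorted by FACS into six bins by GFP to DsRed ratio, PSI derived from sequencing read proportions per bin multiplied by bin number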
Label criterion not met if protein stability index falls below 2; label criterion met in every other case.

Field: example entries. Status: answers known.
>  <sequenceString>
YQELLRVCCCELGVNPDQVHKIRK [E20H]

>  <labelValue>
criterion not met

$$$$
>  <sequenceString>
AQELLRVCCCELGVNPDQVEKIRK [Y1A]

>  <labelValue>
criterion met

$$$$

Determine whether measured protein stability index meets or exceeds 2 for VQELLRVCCCELGVNPDQVEKIRK [Y1V]
criterion not met

Determine whether measured protein stability index meets or exceeds 2 for YQELLRVCCCELGVQPDQVEKIRK [N15Q]
criterion not met

Determine whether measured protein stability index meets or exceeds 2 for YQELLRVKCCELGVNPDQVEKIRK [C8K]
criterion met

Determine whether measured protein stability index meets or exceeds 2 for YQELLRVCCCELGVNPDQPEKIRK [V19P]
criterion met

Determine whether measured protein stability index meets or exceeds 2 for YQELLRCCCCELGVNPDQVEKIRK [V7C]
criterion met
